- MEASURED_TARGET: human recombinant L1196M ALK kinase domain (amino acids 1093-1411) (Homo sapiens, UniProt Q9UM73, L1196M)
- Construct: ALK kinase domain (amino acids 1093-1411); made in house
- METHOD_DESCRIPTION: L1196M mutant ALK enzyme assay (microfluidic mobility shift)
- Format: biochemical
- PARTICULARS: ATP 60 μM, 0.5 nM enzyme, competitive inhibition fit; read-out: L1196M ALK enzyme assay (Ki)
REPORTED_ENDPOINT: Ki (nM)
The answer is to be given in nM; state only the numeric part.

// Input: Cn1nc2c(c1C#N)-c1cnc(N)c(n1)OCc1cc(F)ccc1COC2 [Example 107] . Output its Ki only.
179

// Input: CCc1noc2c1-c1cnc(N)c(n1)O[C@H](C)c1cc(F)ccc1C(=O)N(C)C2 [Example 47] . Output its Ki only.
3.6

// Input: COc1nn(C)c2c1-c1cnc(N)c(n1)OCc1cc(F)ccc1C(=O)N(C)C2C (single isomer, unassigned) [Example 122] . Output its Ki only.
0.7

// Input: C[C@H]1Oc2cc(cnc2N)-c2c(n[nH]c2C#N)CN(C)C(=O)c2ccc(F)cc21 [Example 88] . Output its Ki only.
0.39

// Input: C[C@H]1Oc2cc(cnc2N)-c2c(cnc3cccnc23)CN(C)C(=O)c2ccc(F)cc21 [Example 103] . Output its Ki only.
131

// Input: COc1nn(C)c2c1-c1cnc(N)c(c1)OC(C)c1cccnc1C(=O)N(C)C2 (single isomer, unassigned) [Example 65] . Output its Ki only.
9.8

// Input: C[C@H]1Oc2nc(cnc2N)-c2c(C#N)nn(CC(F)F)c2CN(C)C(=O)c2ccc(F)cc21 [Example 90] . Output its Ki only.
0.249
